test: E. coli growth modulation, two-sided OD650, primary screen, E. coli filamentation project, strain DRC41, 24 h (AID 1093); settings: OD650, 24 h, higher = more signal, called active from +8 up or from −8 down;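 note: MC1000 strain lacking acrAB efflux and sulA so SOS filamentation is blocked; test concentration not given here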
OBSERVED_PROPERTY: z-score
Please reply with the value in numeric form only.

O=C1CCCC=C1C(O)CCCCBr (centres undefined)
0.518

Exercise: # return recorded z-score for entry COC(=O)[C@H](C)NC(=O)CCC1CC(OC(=O)NCc2ccc3c(c2)OCO3)CC2(CCCC(COC(=O)NCC(c3ccccc3)c3ccccc3)O2)O1 (some centres undefined)
Key: -0.502

Exercise: # return recorded z-score for entry O=C1C=C[C@@H](O)[C@@H]2[C@@H]3C(=O)N(C[C@@H]4CCCO4)C(=O)[C@@H]3CC[C@@H]12
Key: 0.656

Exercise: # return recorded z-score for entry COc1cccc([C@H]2Oc3ccc(OC)cc3C(=NO[C@@H]3O[C@H](COC(C)=O)[C@@H](OC(C)=O)[C@H](OC(C)=O)[C@H]3OC(C)=O)[C@@H]2O)c1
Key: 0.373

Exercise: # return recorded z-score for entry COc1ccc(O[C@H]2C=C[C@@H](c3ccccc3)O[C@@H]2CON=C(C)CCN2CCc3nc(-c4ccccc4)c(-c4ccccc4)cc3C2)cc1
Key: 0.669

Exercise: # return recorded z-score for entry CCOC(=O)NN=C1C[C@@H](O)[C@@H](O)[C@@H]2[C@@H]3C(=O)N(Cc4ccccc4)C(=O)[C@@H]3CC[C@H]12
Key: -0.127

Exercise: # return recorded z-score for entry C#CCCCON=C1C[C@@H](O)[C@@H](O)[C@@H]2[C@@H]3C(=O)N(CC)C(=O)[C@@H]3CC[C@@H]12
Key: 0.439

Exercise: # return recorded z-score for entry CC(C)=CCCC(C)=CCON=C1C[C@@H](O)[C@@H](O)[C@@H]2[C@@H]3C(=O)N(c4ccc(F)cc4F)C(=O)[C@@H]3CC[C@H]12
Key: -0.159

Exercise: # return recorded z-score for entry CCOC(=O)[C@H](Cc1ccccc1)NC(=O)CCC1CC(OC(=O)NCc2cccc3ccccc23)CC2(CCCC(COC(=O)NCc3cccc(C(F)(F)F)c3)O2)O1 (some centres undefined)
Key: -0.353

Exercise: # return recorded z-score for entry CC(CCN1CCCc2nc(C)c(C)cc21)=NOC(C)CN1CCCCc2nc(C)c(C)cc21 (centres undefined)
Key: 0.597

Exercise: # return recorded z-score for entry C=C(C)C(=O)OCC1CN2[C@@H](CC[C@@H](C)[C@@H]2c2ccc(Br)cc2)C(=O)O1 (some centres undefined)
Key: -0.166

Exercise: # return recorded z-score for entry C#CCCCON=C1[C@H]2CCn3c(=O)n(C)c(=O)n3[C@H]2[C@H](O)[C@@H]2O[C@H]12
Key: -0.305

Exercise: # return recorded z-score for entry O=C1CCCC=C1C(O)CCOC(c1ccccc1)(c1ccccc1)c1ccccc1 (centres undefined)
Key: -0.0634

Exercise: # return recorded z-score for entry CCOC(=O)[C@H](Cc1ccccc1)NC(=O)CCC1CC(OC(=O)NCc2cccc3ccccc23)CC2(CCCC(COC(=O)NCCC(C)C)O2)O1 (some centres undefined)
Key: -0.444

Exercise: # return recorded z-score for entry COC(=O)CC=C[C@@H](C)[C@@H](C=NO[C@H](C)c1cn([C@H](CO)Cc2ccccc2)nn1)NS(=O)(=O)c1ccc(C)cc1
Key: -0.297

Exercise: # return recorded z-score for entry O=C1[C@H]2[C@H]3[C@H](O)[C@H](O)CC(=NOCc4ccccc4)[C@@H]3CC[C@H]2C(=O)N1Cc1ccc2c(c1)OCO2
Key: 1.1

Exercise: # return recorded z-score for entry CC(C)(C)N1C(=O)[C@H]2[C@H]3[C@H](O)[C@H](O)CC(=NO[C@@H]4O[C@H](CO)[C@@H](O)[C@H](O)[C@H]4O)[C@H]3CC[C@H]2C1=O
Key: -0.864

Source of measurements: PubChem BioAssay
